Recorded measurements of fold enrichment (log2), one per entry
biological target: LY6A (Ly6a, C57BL/6J mouse) (mouse (C57BL/6J)); assay: AAV library bound to Ly6a-transfected HEK293T cells, NGS
Return type: number; implicit unit log2.

>  <SUBSTANCE>
AAV9 K449R 7-mer variant NERRPFL

>  <ENDPOINT_RESULT>
4.31

$$$$
>  <SUBSTANCE>
AAV9 K449R 7-mer variant RSDFKDI

>  <ENDPOINT_RESULT>
3.45

$$$$
>  <SUBSTANCE>
AAV9 K449R 7-mer variant TEKWTSS

>  <ENDPOINT_RESULT>
0.98

$$$$
>  <SUBSTANCE>
AAV9 K449R 7-mer variant HNVFKNP

>  <ENDPOINT_RESULT>
2.09

$$$$

Query (substance): AAV9 K449R 7-mer variant EIRGYSS ; field requested: fold enrichment (log2)
0.75

Next up: AAV9 K449R 7-mer variant MRTFGSA
1

Next up: AAV9 K449R 7-mer variant SIARPFV
3.79

Next up: AAV9 K449R 7-mer variant VAERPFK
6.38

Next up: AAV9 K449R 7-mer variant GKTGYST
-3.32

Next up: AAV9 K449R 7-mer variant PYQGASS
-0.53

Next up: AAV9 K449R 7-mer variant KDKFKDI
3.38

Next up: AAV9 K449R 7-mer variant LKYGTST
1.24

Next up: AAV9 K449R 7-mer variant SIYLGSQ
-0.76

Next up: AAV9 K449R 7-mer variant SKSGYSA
-3.32

Next up: AAV9 K449R 7-mer variant LTKWEST
0.82

Next up: AAV9 K449R 7-mer variant VTHGYSS
-0.84

Next up: AAV9 K449R 7-mer variant LKTGMSS
-0.66

Next up: AAV9 K449R 7-mer variant AISAPFK
2.56

Next up: AAV9 K449R 7-mer variant QTLFKNI
3.07

Next up: AAV9 K449R 7-mer variant DMERPFK
4.51

Next up: AAV9 K449R 7-mer variant SLDFKNI
4.61

Next up: AAV9 K449R 7-mer variant AGSFKDI
3.96

Next up: AAV9 K449R 7-mer variant TSFKPFP
3.11

Next up: AAV9 K449R 7-mer variant NIIRPFA
3.23

Next up: AAV9 K449R 7-mer variant TRNGYST
0.82

Next up: AAV9 K449R 7-mer variant TITFKDV
5.15

Next up: AAV9 K449R 7-mer variant TTMKPFN
2.95

The reported numbers originate from patent US20220143214A1.
